For each entry below, report its melting point value.

Batch of 6 compounds: report melting point for each.
1. CC(C)c1nn2ccccc2c1C(=O)C1CC1 [Compound 1046]
2. O=C(c1c(C2CC2)nn2ccccc12)C1CC1 [Compound 1047]
3. CC(C)c1nn2ccccc2c1C(O)C(C)C (stereo not drawn) [Compound 1002]
4. CC(CN)C(=O)c1c(C(C)C)nn2ccccc12.Cl (stereo not drawn) [compound 1065]
5. CC(C)C(=O)c1c(-c2ccc(F)cc2)nn2cc(C(F)(F)F)ccc12 [Compound 1027]
6. CC(C)C(=O)c1c(C2CC2)nn2ccccc12 [compound 1050]

Marked response:
1. 72 °C
2. 102 to 104 °C
3. 69 °C
4. 110 to 115 °C
5. 129 to 130 °C
6. 108 to 109 °C

Batch of 3 compounds: report melting point for each.
1. CC(CN1CCCCC1)C(=O)c1c(C(C)C)nn2ccccc12.Cl (stereo not drawn) [compound 1063]
2. CCC(=O)c1c(C(C)C)nn2ccccc12 [Compound 1001]
3. CC(CNCc1ccccc1)C(=O)c1c(C(C)C)nn2ccccc12.Cl (stereo not drawn) [compound 1066]

Marked response:
1. 166 to 167 °C
2. 41 to 43 °C
3. 171 to 175 °C
